# Test system: hepatitis C replicon
# METHOD: hepatitis C replicon EC50
# Format: cell-based
# RUN CONDITIONS: Hepatitis C virus; Table 2; hepatitis C replicon; read-out: EC50
Kindly supply the reported EC50 values for the records listed here.

[ask] Entry under review: COc1ccc2c(O[C@@H]3C[C@H]4C(=O)N[C@]5(C(=O)NS(=O)(=O)C6(C)CC6)C[C@H]5/C=C\CCCCC[C@H](Nc5ccccc5F)C(=O)N4C3)cc(-c3nc(C(C)C)cs3)nc2c1C [Compound 492] . Reported EC50?
[reply] 10 to 75 nM

[ask] Entry under review: COc1ccc2c(O[C@@H]3C[C@H]4C(=O)N[C@]5(C(=O)NS(=O)(=O)C6(C)CC6)C[C@H]5/C=C\CCCCC[C@H](Nc5cccc(NS(C)(=O)=O)c5)C(=O)N4C3)cc(-c3nc(C(C)C)cs3)nc2c1C [Compound 484] . Reported EC50?
[reply] 10 to 75 nM

###

# System: hepatitis C replicon
# METHOD: hepatitis C replicon EC50
# Assay type: cell-based
# RUN CONDITIONS: Hepatitis C virus; Table 3; hepatitis C replicon; read-out: EC50
pEC50: −log10 of the molar value.
MEASURED QUANTITY: pEC50

[ask] Entry under review: `CC(C)(C)OC(=O)N[C@H]1CCCCC/C=C\[C@@H]2C[C@@]2(C(=O)NS(=O)(=O)C2(C)CC2)NC(=O)[C@@H]2C[C@@H](Oc3nc4ccccc4s3)CN2C1=O` . Reported pEC50?
[reply] > 8.00

[ask] Entry under review: `CC(C)n1c(O[C@@H]2C[C@H]3C(=O)N[C@]4(C(=O)NS(=O)(=O)N(C)C)C[C@H]4/C=C\CCCCC[C@H](NC(=O)OC(C)(C)C)C(=O)N3C2)nc2cccc(F)c21` . Reported pEC50?
[reply] > 8.00

[ask] Entry under review: `CC(C)(C)OC(=O)N[C@H]1CCCCC/C=C\[C@@H]2C[C@@]2(C(=O)NS(=O)(=O)C2(C)CC2)NC(=O)[C@@H]2C[C@@H](OC(=O)N3CCCC3)CN2C1=O` . Reported pEC50?
[reply] < 7.00

[ask] Entry under review: `CC(C)(C)OC(=O)N[C@H]1CCCCC/C=C\[C@@H]2C[C@@]2(C(=O)NS(=O)(=O)C2(C)CC2)NC(=O)[C@@H]2C[C@@H](Oc3nc4ccccc4n3Cc3ccccc3)CN2C1=O` . Reported pEC50?
[reply] 7.00 to 8.00

[ask] Entry under review: `CC1(S(=O)(=O)NC(=O)[C@@]23C[C@H]2/C=C\CCCCC[C@H](Nc2ccc(C(F)(F)F)cc2)C(=O)N2C[C@H](OC(=O)N4Cc5cccc(F)c5C4)C[C@H]2C(=O)N3)CC1` . Reported pEC50?
[reply] < 7.00

[ask] Entry under review: `CNC(=O)COc1ccccc1S(=O)(=O)NC(=O)[C@@]12C[C@H]1/C=C\CCCCC[C@H](NC(=O)OC(C)(C)C)C(=O)N1C[C@H](O)C[C@H]1C(=O)N2` . Reported pEC50?
[reply] < 7.00

[ask] Entry under review: `Cc1ccc2oc(O[C@@H]3C[C@H]4C(=O)N[C@]5(C(=O)NS(=O)(=O)C6CC6)C[C@H]5/C=C\CCCCC[C@H](NC(=O)OC(C)(C)C)C(=O)N4C3)nc2c1` . Reported pEC50?
[reply] 7.00 to 8.00

[ask] Entry under review: `Cc1cccc2c1nc(O[C@@H]1C[C@H]3C(=O)N[C@]4(C(=O)NS(=O)(=O)N(C)C)C[C@H]4/C=C\CCCCC[C@H](NC(=O)OC(C)(C)C)C(=O)N3C1)n2C(C)C` . Reported pEC50?
[reply] > 8.00

[ask] Entry under review: `CC1(S(=O)(=O)NC(=O)[C@@]23C[C@H]2/C=C\CCCCC[C@H](Nc2ccc(C#N)cc2)C(=O)N2C[C@H](OC(=O)N4Cc5cccc(F)c5C4)C[C@H]2C(=O)N3)CC1` . Reported pEC50?
[reply] 7.00 to 8.00

[ask] Entry under review: `CC(C)(C)OC(=O)N[C@H]1CCCCC/C=C\[C@@H]2C[C@@]2(C(=O)NS(=O)(=O)C2(C)CC2)NC(=O)[C@@H]2C[C@@H](Oc3nc4ccc(Br)cc4s3)CN2C1=O` . Reported pEC50?
[reply] > 8.00
